- Tested on: MS2 coat protein
- Protocol: apparent Kd, MS2 coat protein; higher = weaker binding; RNA-MaP array; FMN 200 µM where present
- Test parameters: designed as: OFF switch for flavin mononucleotide; no ligand
Measurement kind: apparent Kd (µM)

> print(dat)
                                      chain  units.label  measured.result
1  GGAGAUUACUCAGGAUAUCGCUAGACCGACAUGAGGAUCACCCAUGUGGGUGACGCGGUGGGCUACGAGAAGGGAGAAGUGCCC           µM           0.0115
2  UGAGCCUCGUGAGGAUAUACAUGAGGAUCACCCAUGUAAUAAAGUGAACGGAGGAAGCUCCGAAUGUAGAAGGCACGAGGCUCA           µM           0.0601
3  UUAUUAUAUGUAGGAUAUGCGUAUUAUUGUUAUGCAGAAGGACAUGAGGAUCACCCAUGUAUAUUAUUGUUGUAUAUUAUAUAU           µM           0.0235
4  UACAGACAUGAGGAUCACCCAUGUGAGGAUAUCCAUAACGAUAUUACAAGUAUGACAGGGAGAAGGCACAGCAA           µM           0.0413
5  CUUCUGUGAGGAUAUGUUAGCUCCCAGCAAGUCGCUGAGAGACAGAAGGCACAUGAGGAUCACCCAUGUGGGCG           µM           0.0351

* * *

Some sequences, each annotated with its measured apparent Kd.
- System: MS2 coat protein
- Protocol: apparent Kd, MS2 coat protein; higher = weaker binding; RNA-MaP array; theophylline 2 mM where present
- Test parameters: ligand present: theophylline; designed as: OFF switch for theophylline
Measurement kind: apparent Kd

> print(dat)
                                      chain  measured.result
1  AGAAUAACACAUGAGGAUCACCCAUGUGAUACCAGCUAGGAAACUAGCCCUUGGCAGCACAUAAGGUGAUCCAGCUGCCAAGAAU        0.0749 µM
2  CUAUAAGUAACUGAUACCAGUGUACUGACAUGAGGAUCACCCAUGUUGGGUUUUGUUGUACACCCUUGGCAGCAGAAUCUUGUAG         0.085 µM
3  UAUAUAUAUAUUGAUACCAGCAGAGAAAACAUAUAUCCUAACAUGAGGAUCACCCAUGUAUGCCCUUGGCAGCGAUAUAUAUAUA        0.0323 µM
4  GUAUGGAAACAUACUUGGGUAUCAUGAGAUACCAGUACAGAAAUGUACCCUUGGCAGCUCAAGCAUACAUGAGGAUCACCCAUGU        0.0271 µM

* * *

Some sequences, each annotated with its measured apparent Kd.
- System: MS2 coat protein
- Protocol: apparent Kd, MS2 coat protein; higher = weaker binding; RNA-MaP array; theophylline 2 mM where present
- Test parameters: ligand present: theophylline; designed as: ON switch for theophylline
Measurement kind: apparent Kd

> print(dat)
                                      chain  measured.result
1  AAUAACAUGAGGAUCACCCAUGUAAAAGAUACCAGAUGCAUGAUGAUCCCUUGGCAGCUUAAAACGCGAUUGGAAACAAUCGCGA           126 nM
2  UGAUCCUGCAGGGAUACCAGCGCCGCUUGAUAACUGUGCACAUGAGGAUCACCCAUGUAGCGCCCUUGGCAGCCCAGCUAGAGGG            23 nM
3  CUGCCAUGCAGAGAUACCAGUGCGCUCAGCACAUGAGGAUCACCCAUGUCGGCUGCCGAUCACCCUUGGCAGCUCUGCAUGGCAG          9.11 nM
4  ACGACAUGAGGAUCACCCAUGUAAGGUGAUACCAGACGAAGUAAUGUCCCUUGGCAGCACACGCAUAGUUGCGAUUAUUGUACGA           137 nM
5  ACACGAGGAUCACCCGUGUCAUGUGGUGAUACCAGUUUACAUGAGAACCCUUGGCAGCAUAACAACAUGAGGAUCACCCAUGUCA          41.7 nM
6  CCUGCGUUUCUUUUCUUUCGCAGGAAUGAUACCAGUAGGGAAACCUACCCUUGGCAGCAUGGGACAUGAGGAUCACCCAUGUUUU          33.4 nM
7  AUCGUACCUGAGGAUACCAGCAUGUGAUCAUAACAUGAGGAUCACCCAUGUAAUCAGUGAUGCCCUUGGCAGCUUGAUCGGUACA          24.9 nM

* * *

- Tested on: MS2 coat protein
- Protocol: apparent Kd, MS2 coat protein; higher = weaker binding; RNA-MaP array; theophylline 2 mM where present
- Test parameters: ligand present: theophylline; designed as: OFF switch for theophylline
Outcome: Fulfilled for apparent Kd of at least 100 nM; Not fulfilled for anything lower.

> print(dat)
                                      chain   target.of.assay     class.name
1  GAGCUGAUGUAGGCCGGAUAUCCGGGAGAUACCAGUACAGAAAUGUACCCUUGGCAGCUCUUUCCUACAUGAGGAUCACCCAUGU  MS2 coat protein  Not fulfilled
2  ACAUGAGGAUCACCCAUGUUCCUCGCCGAUACCAGUGAAGAAGUACGCCCUUGGCAGCGGAAAGAGUAUUUUGGAGAUGAGGUAC  MS2 coat protein  Not fulfilled
3  UUUGCACAUGAGGAUCACCCAUGUACAGAUACCAGCCUCAUCUACGGCCCUUGGCAGCUGAGACAAUGGUGACGUGAUGGGCUUU  MS2 coat protein  Not fulfilled
4  AUAACUGUCAAGGAAGGUGAUCCAGCAGAUACCAGCUAGGAAACUAGCCCUUGGCAGCUGCAACAUGAGGAUCACCCAUGUAAUA  MS2 coat protein      Fulfilled
5  ACAUGAGGAUCACCCAUGUGCCGUCUUGAUACCAGACGCGAAGUAGUCCCUUGGCAGCAAAUACGUGAGGGUCGCGCAUGUGUAA  MS2 coat protein  Not fulfilled
6  UCGUGGUCCGCAAGGACCGGGAGUUGCGAUACCAGCACGGUAACGUGCCCUUGGCAGCGCACAUGAGGAUCACCCAUGUGGUGUU  MS2 coat protein      Fulfilled
7  CGGUACAUGAGGAUCACCCAUGUGUCGGAUACCAGAGAGCCGUCUCUCCCUUGGCAGCUGGUUUUACAUGAGGAUCACCCAUGUG  MS2 coat protein  Not fulfilled

* * *

Some sequences, each annotated with its measured apparent Kd.
- System: MS2 coat protein
- Protocol: apparent Kd, MS2 coat protein; higher = weaker binding; RNA-MaP array; FMN 200 µM where present
- Test parameters: designed as: OFF switch for flavin mononucleotide; no ligand
Measurement kind: apparent Kd (nM)

> print(dat)
                                      chain   target.of.assay  units.label  measured.result
1  ACGCUCAGAGGAUAUACAUGAGGAUCACCCAUGUGUUACCGAGGAGUACGGUCGUCACGUAGAAGGCUGGGUAA  MS2 coat protein           nM             17.9
2  UCGCUGCGAGGAUAUACAUGAGGAUCACCCAUGUGCGGGUCCGGGUUUUCGUCCAUUAGUAGAAGGCGCAGUGA  MS2 coat protein           nM              369
3  GGUGCGUUUGUGAGGAUAUGCUGGUCCUUGGUUCGGCAGAAGGCACAUGAGGAUCACCCAUGUGGUGUCGCACC  MS2 coat protein           nM             94.6
4  GAUUAACAUGAGGAUCACCCAUGUGAGGAUAUGGACUGGCUCACUUUUCGAUUCCCGUCUAGAAGGCGCAUCUU  MS2 coat protein           nM             39.3

* * *

- System: MS2 coat protein
- Protocol: apparent Kd, MS2 coat protein; higher = weaker binding; RNA-MaP array
- Test parameters: designed as: OFF switch for flavin mononucleotide; no ligand
Measurement kind: apparent Kd (nM)

> print(dat)
                                       chain  units.label  measured.result
 1  CGUACAAUUAAGAAGGGACAUUGCUAUAGACUGUCAGGAUAUUAUGUACAUGAGGAUCACCCAUGUAGUAGUCAAGGGUCGGAA           nM             16.7
 2  CUCCUGGAAGGAUAUGUGUUUCAGGACAUGAGGAUCACCCAUGUAGAACCUCUCUCCCGCACAGAAGGUCCAUUGU           nM             74.3
 3  AAGGAAUAUGAGGAUAUUGAUGCGAAACCUACUCAAGAAGGCAUAACAUGAGGAUCACCCAUGUGACCCUUAUA           nM             19.4
 4  AAACCCAAAGUUAGGAUAUGCAUUGCCGGCCCUGUGCAGAAGGAACAUGAGGAUCACCCAUGUACUGGUGUUCG           nM             42.7
 5  CGGACCUGAGAGAAGGGCAGCCGACAUGAGGAUCACCCAUGUAAUCGAGGACCAUCCUCAUUUUUGCAGGAUAUCUAUUGUUAU           nM             35.4
 6  GAUCAUUUAGUGAGGAUAUGUCUCCUGCAAAGUCGACAGAAGGCACAUGAGGAUCACCCAUGUUCGCUUCGGAU           nM                5
 7  UUAGACCUGCGAGGAUAUUCCAGACUAACUGAGGAAGAAGGCGCUAGAACAUGAGGAUCACCCAUGUAACAGGGAACACUUCGU           nM             9.82
 8  AUACAGCUAGGAUAUCCGAUAGUAUACAUGAGGAUCACCCAUGUCCUGACGGCCGACCAUGGAGAAGGAGCAGAUA           nM             42.2
 9  UUAUACGCGAAAGGAUAUCUGAGAGUGGGAUCGUGGACAUGAGGAUCACCCAUGUGGAGAGAGGGAGAGAAGGUUCGGGUAUUC           nM             31.7
10  AACCGGCAAGGAUAUACAUGAGGAUCACCCAUGUACGACGCGCUGGCUACGUUUUUAUGUAGAAGGUGCCGACC           nM             6.19
11  UCGUUGGCACAGAAGGGACUCUCGAAGCAUGUGUCAGGAUAUGUGCGCUACAUGAGGAUCACCCAUGUCAAGACCUGGUUAGCA           nM             29.4
12  ACCUACGUAGGAUAUACGCAUCGUGGACCGCAUGCCCGUGCACAUGAGGAUCACCCAUGUAGAAGGACGUACGC           nM             17.1
13  CAGGAGCUAGAGAAGGAGGUUACGCCCACGGACCUAGGAUAUCUGUUCUGAGUUACAUGAGGAUCACCCAUGUGUCCGCGGUGG           nM             53.9
14  UAGUUGCAUACAUGAGGAUCACCCAUGUUUUAAUGGGUAACUAGAAGGUGUUGACGUUGGCUAAACAAGGAUAUAGUUCGUGCU           nM             43.3
15  AAAGAACAUGAGGAUCACCCAUGUCAGGAUAUACAAAGACGUAGCAAAGCGGACUCAAGAAGAAGGGACAAGGA           nM             12.8
